# condition_context: in water, 323.15 K
endpoint_label: solubility (mole fraction)
Keep the answer to the number alone.

Problem: Which value of solubility (mole fraction) has been reported for "CCOC(=O)c1c(CSc2ccccc2)n(C)c2cc(Br)c(O)c(CN(C)C)c12.Cl.O" in the records?
Solution: 0.000204

* * *

# condition_context: in n-butanol, 313.15 K
endpoint_label: solubility (mole fraction)
Keep the answer to the number alone.

Problem: Which value of solubility (mole fraction) has been reported for "CCOC(=O)c1c(CSc2ccccc2)n(C)c2cc(Br)c(O)c(CN(C)C)c12.Cl.O" in the records?
Solution: 0.00865

* * *

# condition_context: in isopropanol, 303.15 K
endpoint_label: solubility (mole fraction)
Keep the answer to the number alone.

Problem: Which value of solubility (mole fraction) has been reported for "CCOC(=O)c1c(CSc2ccccc2)n(C)c2cc(Br)c(O)c(CN(C)C)c12.Cl.O" in the records?
Solution: 0.0021

* * *

# condition_context: in n-propanol, 318.15 K
endpoint_label: solubility (mole fraction)
Keep the answer to the number alone.

Problem: Which value of solubility (mole fraction) has been reported for "CCOC(=O)c1c(CSc2ccccc2)n(C)c2cc(Br)c(O)c(CN(C)C)c12.Cl.O" in the records?
Solution: 0.0141

* * *

# condition_context: in n-propanol, 328.15 K
endpoint_label: solubility (mole fraction)
Keep the answer to the number alone.

Problem: Which value of solubility (mole fraction) has been reported for "CCOC(=O)c1c(CSc2ccccc2)n(C)c2cc(Br)c(O)c(CN(C)C)c12.Cl.O" in the records?
Solution: 0.0214

* * *

# condition_context: in n-butanol, 308.15 K
endpoint_label: solubility (mole fraction)
Keep the answer to the number alone.

Problem: Which value of solubility (mole fraction) has been reported for "CCOC(=O)c1c(CSc2ccccc2)n(C)c2cc(Br)c(O)c(CN(C)C)c12.Cl.O" in the records?
Solution: 0.00709

* * *

# condition_context: in water, 298.15 K
endpoint_label: solubility (mole fraction)
Keep the answer to the number alone.

Problem: Which value of solubility (mole fraction) has been reported for "CCOC(=O)c1c(CSc2ccccc2)n(C)c2cc(Br)c(O)c(CN(C)C)c12.Cl.O" in the records?
Solution: 7.34e-05

* * *

# condition_context: in n-propanol, 298.15 K
endpoint_label: solubility (mole fraction)

Problem: Which value of solubility (mole fraction) has been reported for "CCOC(=O)c1c(CSc2ccccc2)n(C)c2cc(Br)c(O)c(CN(C)C)c12.Cl.O" in the records?
Solution: 0.00628

* * *

# condition_context: in ethyl acetate, 303.15 K
endpoint_label: solubility (mole fraction)

Problem: Which value of solubility (mole fraction) has been reported for "CCOC(=O)c1c(CSc2ccccc2)n(C)c2cc(Br)c(O)c(CN(C)C)c12.Cl.O" in the records?
Solution: 0.000125

* * *

# condition_context: in n-propanol, 303.15 K
endpoint_label: solubility (mole fraction)

Problem: Which value of solubility (mole fraction) has been reported for "CCOC(=O)c1c(CSc2ccccc2)n(C)c2cc(Br)c(O)c(CN(C)C)c12.Cl.O" in the records?
Solution: 0.00728

* * *

# condition_context: in DMF, 328.15 K
endpoint_label: solubility (mole fraction)
Keep the answer to the number alone.

Problem: Which value of solubility (mole fraction) has been reported for "CCOC(=O)c1c(CSc2ccccc2)n(C)c2cc(Br)c(O)c(CN(C)C)c12.Cl.O" in the records?
Solution: 0.0513
